fractional viability values by entry
Test system: TYKNU
ASSAY: fractional viability relative to vehicle; TYKNU is a high-grade serous ovarian cancer line; higher = less growth inhibition
CONDITIONS USED: 2uM; 72 h; genotype: OPA1 knockout (sgOPA1 #2)
Counter-ions that a name gives are not always drawn. In all, about 2,000 compounds were measured (“fractional viability relative to vehicle”: median about 0.92, lowest 2% from about 0.11 on). The entries come from a sample that favours the lowest values as a whole.

Cc1ccc(CNc2ncnc3ccc(-c4ccc(CO)o4)cc23)o1	0.989
N#CC(=C(/N)Sc1ccccc1N)/C(C#N)=C(\N)Sc1ccccc1N	1.36
O=C(NO)c1cccc(C(=O)NCCc2ccccc2)c1	0.926

Enquiry: Consider the compound Clc1ccc(NN=C(c2ccccc2)c2ccccn2)nc1 tested on TYKNU; state its fractional viability.
Return: 0.229

Enquiry: Tell me its fractional viability on TYKNU: COc1cc2nc(N3CCN(C(=O)C4COc5ccccc5O4)CC3)nc(N)c2cc1OC (stereo not given) [Doxazosin Mesylate]
Return: 1.1

Enquiry: Fetch value of fractional viability on TYKNU for CC(C)(C)OC(=O)Nc1ccc(-c2cc(C(=O)NCCCCCCC(=O)NO)no2)cc1 .
Return: 0.367

Enquiry: Give TYKNU fractional viability for the following compound: COC(=O)N1CCN(Cc2cccc(NC(=O)Nc3ccc(C)nc3)c2F)CC1
Return: 1.01

Enquiry: Enter recorded fractional viability with TYKNU for COc1cc2nc(N3CCCN(C)CC3)nc(NC3CCN(Cc4ccccc4)CC3)c2cc1OC here.
Return: 0.506
